Test system HSV-1 ribonucleotide reductase (Human herpesvirus 1), IC50 listed for each of the molecules.
*1 amine or outer side, *2 acyl side, *3 side chain or, on linkers, in order; H or OH if unused. Where a SMILES comes first, the peptide text is derived from it. [ ]: non-standard residue; d: D form. The star is where a group is joined. Asp(3,3-(CH2)4) = N[C@H](C(=O)O)C1(C(=O)O)CCCC1; tBuAla = CC(C)(C)C[C@H](N)C(=O)O; Tle = CC(C)(C)[C@H](N)C(=O)O; Pyrrolidide = C1CCN(*)C1; X2 = CC(C)(C)CC(C)(C)N*; CO = O=C([*:1])[*:2]; X1 = CCCC1(N*)CCCC1
Write it as a number; the unit µM goes unstated.

Given CCCC(CCC)NC(=O)N[C@H](C(=O)N[C@@H](CC(=O)N1CCCC1)C(=O)N[C@H](C(=O)NCC(C)(C)C)C1(C(=O)O)CCCC1)C(C)(C)C , state its recorded IC50.
0.18

Look up IC50 for this molecule: CC(C)(C)C[C@H](NC(=O)[C@@H](NC(=O)[C@H](CC(=O)N1CCCC1)NC(=O)[C@@H](NC(=O)NC(C)(C)CC(C)(C)C)C(C)(C)C)C1(C(=O)O)CCCC1)C(=O)O ({X2-CO}-[Tle]D(Pyrrolidide)[Asp(3,3-(CH2)4)][tBuAla]-OH)
0.18

What measured IC50 goes with CCCC(C)(CCC)NC(=O)N[C@H](C(=O)N[C@@H](CC(=O)N1CCCC1)C(=O)N[C@H](C(=O)NCC(C)(C)C)C1(C(=O)O)CCCC1)C(C)(C)C ?
0.16

Which IC50 value is on record for CCCC1(NC(=O)N[C@H](C(=O)N[C@@H](CC(=O)N2CCCC2)C(=O)N[C@H](C(=O)N[C@@H](CC(C)(C)C)C(=O)O)C2(C(=O)O)CCCC2)C(C)(C)C)CCCC1 ({X1-CO}-[Tle]D(Pyrrolidide)[Asp(3,3-(CH2)4)][tBuAla]-OH) ?
0.13

Could you tell me which IC50 is on file for CCCC(CCC)NC(=O)N[C@H](C(=O)N[C@@H](CC(=O)N1CCCC1)C(=O)N[C@H](C(=O)NCC(C)(C)CC)C1(C(=O)O)CCCC1)C(C)(C)C ?
0.24
